Molecular target: human PTH1 receptor (Homo sapiens, UniProt Q03431)
Sequence (Q03431 27-593): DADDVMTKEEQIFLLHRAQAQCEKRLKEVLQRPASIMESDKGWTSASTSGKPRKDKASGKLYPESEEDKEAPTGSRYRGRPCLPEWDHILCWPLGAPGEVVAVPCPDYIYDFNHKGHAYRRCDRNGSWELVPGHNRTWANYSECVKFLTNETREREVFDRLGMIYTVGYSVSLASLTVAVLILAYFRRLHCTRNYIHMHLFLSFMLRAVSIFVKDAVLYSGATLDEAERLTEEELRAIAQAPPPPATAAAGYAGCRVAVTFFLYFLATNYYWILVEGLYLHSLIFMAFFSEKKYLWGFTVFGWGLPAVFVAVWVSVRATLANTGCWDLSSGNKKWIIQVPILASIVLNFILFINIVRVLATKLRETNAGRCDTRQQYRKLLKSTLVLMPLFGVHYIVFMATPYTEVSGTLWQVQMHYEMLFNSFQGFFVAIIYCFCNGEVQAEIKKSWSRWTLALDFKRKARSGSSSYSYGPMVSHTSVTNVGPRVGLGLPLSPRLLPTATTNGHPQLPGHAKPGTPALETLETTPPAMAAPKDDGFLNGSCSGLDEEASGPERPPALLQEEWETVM
Assay: In vitro cAMP signal activity in HKRK-B7 cells (LLC-PK1 cells overexpressing the human PTH1 receptor)
Assay type: cell-based
Conditions: HKRK-B7 cells; compound at 1×10^−3 M; […]; 0.1 µM
List of cAMP production activity (%) values.
API: value field is a number in %; no unit string.

{"structure-notation": "Cc1cc(N(C)C(N)=S)cc(C)c1CCS(=O)(=O)N1CCC2(CC1)N=C([C@H]1CC[C@H](C)CC1)NC2=O", "cAMP production activity (%)": 89}
{"structure-notation": "O=C(Cn1ccc2c(/C=C/S(=O)(=O)N3CCC4(CC3)N=C(C3CCCCC3)NC4=O)cccc21)Nc1ccncc1", "cAMP production activity (%)": 16}
{"structure-notation": "Cc1cc(N(C)C(=O)OCCN(C)C)ccc1/C=C/S(=O)(=O)N1CCC2(CC1)N=C(c1cccc(OC(F)(F)F)c1)NC2=O", "cAMP production activity (%)": 23}

Attention now turns to another entry.
Return cAMP production activity (%) for the following molecule: Cc1cc(N(C)C(=O)NCCN(C)C)ccc1/C=C/S(=O)(=O)N1CCC2(CC1)N=C(c1cccc(OC(F)(F)F)c1)NC2=O 25

* * *

Target: human PTH1 receptor (Homo sapiens)
Sequence (Q03431 27-593): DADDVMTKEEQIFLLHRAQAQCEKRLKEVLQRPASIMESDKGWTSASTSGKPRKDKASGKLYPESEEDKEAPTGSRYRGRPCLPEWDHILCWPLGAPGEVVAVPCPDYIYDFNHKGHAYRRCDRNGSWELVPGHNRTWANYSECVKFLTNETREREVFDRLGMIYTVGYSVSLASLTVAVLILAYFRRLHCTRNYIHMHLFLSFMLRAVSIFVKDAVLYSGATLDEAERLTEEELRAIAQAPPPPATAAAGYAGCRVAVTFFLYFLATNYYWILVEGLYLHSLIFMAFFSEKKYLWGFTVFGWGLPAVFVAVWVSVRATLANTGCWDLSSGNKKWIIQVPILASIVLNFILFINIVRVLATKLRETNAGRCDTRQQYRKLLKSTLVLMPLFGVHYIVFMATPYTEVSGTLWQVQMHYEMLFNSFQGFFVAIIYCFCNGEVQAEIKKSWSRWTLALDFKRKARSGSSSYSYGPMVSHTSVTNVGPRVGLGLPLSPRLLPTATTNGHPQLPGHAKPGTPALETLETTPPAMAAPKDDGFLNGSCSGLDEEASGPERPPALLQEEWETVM
Test: In vitro cAMP signal activity in HKRK-B7 cells (LLC-PK1 cells overexpressing the human PTH1 receptor)
Assay type: cell-based
Conditions: HKRK-B7 cells; compound at 1×10^−3 M; cAMP produced as percentage of that produced by hPTH(1-34) at 100 nM
measurement-name: cAMP production activity (%)
API: value field is a number in %; no unit string.

Return cAMP production activity (%) for the following compound: Cc1cc(C(=O)N2CCC(C)(O)CC2)cc(C)c1/C=C/S(=O)(=O)N1CCC2(CC1)N=C(c1ccc(OC(C)(C)C(F)(F)F)c(C(F)(F)F)c1)NC2=O 74

* * *

biological target: human PTH1 receptor (Homo sapiens); assay: In vitro cAMP signal activity in HKRK-B7 cells (LLC-PK1 cells overexpressing the human PTH1 receptor); type: cell-based; settings: HKRK-B7 cells; compound at 1×10^−3 M; cAMP produced as percentage of that produced by hPTH(1-34) at 100 nM
measurement-name: cAMP production activity (%)
API: value field is a number in %; no unit string.

Recorded cAMP production activity (%), per entry:
{"structure-notation": "CC(=O)N(C[C@H](O)CO)c1cc(C)c(/C=C/S(=O)(=O)N2CCC3(CC2)N=C(CCCCCCCCC(F)(F)F)NC3=O)c(C)c1", "system-name": "human PTH1 receptor (Homo sapiens)", "cAMP production activity (%)": 124}
{"structure-notation": "C=CCCCCC(=O)N(C)c1cc(C)c(CCS(=O)(=O)N2CCC3(CC2)N=C(CCCCC=C)NC3=O)c(C)c1", "system-name": "human PTH1 receptor (Homo sapiens)", "cAMP production activity (%)": 88}
{"structure-notation": "Cc1cc(C(=O)N2CCC(C)(O)CC2)cc(C)c1/C=C/S(=O)(=O)N1CCC2(CC1)N=C(c1ccc(OCC(F)(F)F)c(Cl)c1)NC2=O", "system-name": "human PTH1 receptor (Homo sapiens)", "cAMP production activity (%)": 61}
{"structure-notation": "Cc1cc(C(=O)N(C)C)ccc1-c1ccc(S(=O)(=O)N2CCC3(CC2)N=C(c2cccc(OC(F)(F)F)c2)NC3=O)cc1", "system-name": "human PTH1 receptor (Homo sapiens)", "cAMP production activity (%)": 28}
{"structure-notation": "CC(=O)Nc1ccc(CCS(=O)(=O)N2CCC3(CC2)N=C([C@H]2CC[C@@H](CC(F)F)CC2)NC3=O)c(C)c1", "system-name": "human PTH1 receptor (Homo sapiens)", "cAMP production activity (%)": 60}
{"structure-notation": "Cc1cc2ccc1CCS(=O)(=O)N1CCC3(CC1)N=C(NC3=O)c1cc(cc(C(F)(F)F)c1)OCC/C=C/CCCCCCN(C)C2=O", "system-name": "human PTH1 receptor (Homo sapiens)", "cAMP production activity (%)": 48}
{"structure-notation": "Cc1cc(C(=O)N(C)C)ccc1CCS(=O)(=O)N1CCC2(CC1)N=C(c1ccc(Cl)cc1Cl)NC2=O", "system-name": "human PTH1 receptor (Homo sapiens)", "cAMP production activity (%)": 66}
{"structure-notation": "Cc1cc(N2C(=O)CC[C@@H]2COCCO)cc(C)c1/C=C/S(=O)(=O)N1CCC2(CC1)N=C(C1CCCCC1)NC2=O", "system-name": "human PTH1 receptor (Homo sapiens)", "cAMP production activity (%)": 76}

Return cAMP production activity (%) for the following compound: COC(=O)Nc1ccc(C)c(/C=C/S(=O)(=O)N2CCC3(CC2)N=C(C2CCCCC2)NC3=O)c1 41

Return cAMP production activity (%) for the following compound: Cc1cc(C(=O)N2CCC(O)(CF)CC2)cc(C)c1/C=C/S(=O)(=O)N1CCC2(CC1)N=C(c1ccc(C(F)(F)F)c(Cl)c1)NC2=O 101

Return cAMP production activity (%) for the following compound: Cc1cc(N(C)C(=O)C(F)(F)F)cc(C)c1CCS(=O)(=O)N1CCC2(CC1)N=C(C1CC(C)(C)CC(C)(C)C1)NC2=O 60

* * *

target: human PTH1 receptor (Homo sapiens, UniProt Q03431); assay: In vitro cAMP signal activity in HKRK-B7 cells (LLC-PK1 cells overexpressing the human PTH1 receptor); format: cell-based; conditions: HKRK-B7 cells; compound at 1×10^−3 M; cAMP produced as percentage of that produced by hPTH(1-34) at 100 nM
Classify by cAMP production activity (%). Ranges: bin A: < 70%; bin B: ≥ 70% and < 80%; bin C: ≥ 80%

{"compound": "Cc1cc(N(C(N)=O)C(C)C)cc(C)c1/C=C/S(=O)(=O)N1CCC2(CC1)N=C(C1CCC(C)CC1)NC2=O (stereo not drawn)", "discrete-label": "bin B"}
{"compound": "Cc1cc(C(=O)N2CCC(C)(O)CC2)cc(C)c1CCS(=O)(=O)N1CCC2(CC1)N=C(c1ccc3c(c1)OC(F)(F)O3)NC2=O", "discrete-label": "bin C"}
{"compound": "Cc1cc(C2=NC3(CCN(S(=O)(=O)/C=C/c4c(C)cc(C(=O)N5CCC(O)(CF)CC5)cc4C)CC3)C(=O)N2)c(C)cc1F", "discrete-label": "bin C"}
{"compound": "Cc1cc(N(C)C(N)=O)cc(C)c1CCS(=O)(=O)N1CCC2(CC1)N=C(C(F)CCCCCCCC(F)(F)F)NC2=O (stereo not drawn)", "discrete-label": "bin C"}

Sort O=C1NC(C2CCCCC2)=NC12CCN(S(=O)(=O)c1cccc3ccccc13)CC2 into one of the categories. bin A

Data origin, for the record: patent US9169254B2
